Protein target, amino acids: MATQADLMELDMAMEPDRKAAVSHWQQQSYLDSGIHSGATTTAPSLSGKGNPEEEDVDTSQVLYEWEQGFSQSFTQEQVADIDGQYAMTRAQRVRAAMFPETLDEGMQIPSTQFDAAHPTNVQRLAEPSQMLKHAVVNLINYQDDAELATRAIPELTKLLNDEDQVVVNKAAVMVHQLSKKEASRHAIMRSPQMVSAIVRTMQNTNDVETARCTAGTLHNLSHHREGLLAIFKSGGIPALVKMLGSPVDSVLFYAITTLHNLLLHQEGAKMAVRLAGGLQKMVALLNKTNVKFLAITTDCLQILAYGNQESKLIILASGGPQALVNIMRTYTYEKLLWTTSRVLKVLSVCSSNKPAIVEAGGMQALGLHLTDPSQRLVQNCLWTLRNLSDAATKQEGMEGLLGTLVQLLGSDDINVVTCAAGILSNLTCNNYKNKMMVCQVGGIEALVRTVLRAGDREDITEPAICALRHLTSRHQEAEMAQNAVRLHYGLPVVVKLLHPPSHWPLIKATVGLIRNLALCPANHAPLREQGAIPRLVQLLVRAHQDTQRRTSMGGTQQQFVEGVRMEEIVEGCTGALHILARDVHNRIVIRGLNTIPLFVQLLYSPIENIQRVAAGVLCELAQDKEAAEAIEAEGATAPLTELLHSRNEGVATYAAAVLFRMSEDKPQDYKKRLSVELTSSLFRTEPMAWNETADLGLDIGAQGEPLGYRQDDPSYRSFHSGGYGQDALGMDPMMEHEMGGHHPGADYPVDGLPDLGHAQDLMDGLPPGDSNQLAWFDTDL
Hi there, I'd appreciate the recorded Kd for every entry that follows.
# output: bare number, implied unit µM

Task item: Data request, read-out Kd, for CC(C)c1ccc(-c2cccc(S(=O)(=O)N3CCCC(c4cccc(OC(C)(C)C(=O)NCC(=O)N5CCC[C@H]5CN)c4)C3)c2)cc1 (some centres unmarked) [Compound 115-010]
Reply: 284

Task item: Data request, read-out Kd, for CC(C)c1ccc(-c2cccc(S(=O)(=O)N3CCCC(c4cccc(OC(C)(C)C(=O)NCC(=O)N5CC[C@@H](CN)C5)c4)C3)c2)cc1 (some centres unmarked) [Compound 115-012]
Reply: 760
